For each entry below, report its inhibition value.
Biological target: Apelin receptor (Homo sapiens) (UniProt P35414)
Sequence (P35414 whole entry, looked up): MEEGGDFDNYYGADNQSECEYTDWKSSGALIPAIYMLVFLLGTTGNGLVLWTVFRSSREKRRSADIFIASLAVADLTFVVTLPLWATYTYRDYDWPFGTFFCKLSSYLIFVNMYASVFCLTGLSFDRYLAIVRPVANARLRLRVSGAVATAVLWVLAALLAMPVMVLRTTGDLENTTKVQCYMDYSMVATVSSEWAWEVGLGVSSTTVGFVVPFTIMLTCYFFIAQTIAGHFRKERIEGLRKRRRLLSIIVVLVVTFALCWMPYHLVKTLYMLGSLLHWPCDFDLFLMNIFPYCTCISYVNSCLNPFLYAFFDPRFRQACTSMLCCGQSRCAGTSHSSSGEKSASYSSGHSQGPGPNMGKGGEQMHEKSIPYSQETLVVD
Assay: antagonists of human apelin receptor APJ, primary screen, CHO-K1 cells, beta-arrestin complementation, luminescence (AID 2521);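 also: cells challenged with 10 nM apelin-13 agonist together with compound; plate controls were apelin-13 plus DMSO wells for no effect and DMSO wells lacking apelin-13 for full effect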
Settings: at 20 µM, active compounds read high
About 1,100 (0.33%) of roughly 330,000 compounds were called active. Only a selection was taken, and actives are over-represented in it overall.
The answer is to be given in %; state only the numeric part.

Value lookup for inhibition; key = Cc1cnc(NC(=O)c2ccccn2)s1
9.6

inhibition for CC(CN1CCOCC1)OC(=O)c1ccc(Cl)cc1Cl (configuration not stated) ?
-5.38

For COc1ccc(/C(C)=N\NC(=O)c2ccc(-c3ccccc3)cc2)c(F)c1 , what is its reported inhibition?
8.03

Reported inhibition for COC(=O)c1sccc1NC(=S)Nc1ccc(C)cc1 : what is it?
-10.8

# query: inhibition of entry COc1ccc(OC(C)C(=O)Nc2cccnc2)cc1 (configuration not stated)
15.8

Given CC(=O)N1c2ccc(S(=O)(=O)N3CCC(C(=O)NCc4ccc(F)cc4)CC3)cc2CC1C (configuration not stated) , state its recorded inhibition.
7.14

Which inhibition is reported for this compound? CC(CN1CCOCC1)OC(=O)c1ccc(C(C)(C)C)cc1 (configuration not stated)
77

inhibition lookup needed for Cc1ccc(C(=O)OC(C)CN2CCOCC2)cc1 (configuration not stated) , thanks.
-14.4

What inhibition value was documented for this compound, Cc1ccc(C(=O)OC2=CC(=O)CC(C)(C)C2)cc1 ?
-13.7

Field request: inhibition | item: CCN(CC(=O)Nc1ccc(OC)cc1)C(=O)CSCc1ccc(C)cc1
12.9

For COc1ccc(NC(=O)/C(Cl)=C(/Cl)S(=O)Cc2ccc(C)cc2)cn1 (configuration not stated) , what is its reported inhibition?
89.8

# get_value(readout='inhibition', item= C/C(=N\NC(=O)c1ccccc1F)c1ccccn1 )
57.1

Reference for the values: PubChem BioAssay AID2521
